Tested on: HOP-92 NSCLC
ASSAY_SUMMARY: NCI tumour cell line growth inhibition, 48 h
Please use rule met whenever TGI is not below 8 µM, and rule not met whenever it is.

CCN(C(=O)N[C@@H](CC(C)C)C(=O)NCC(=O)OC)c1ccccc1 ... rule met
NCCCCNOCCCN ... rule met

Ask | Decide: TGI of NC(Cc1cc(I)c(Oc2ccc(O)c(I)c2)c(I)c1)C(=O)O (configuration not stated) >= 8 µM?
Reply | rule met

Ask | Please do the same for Cc1cccc(Oc2ccc(Nc3ncnc4ccc(NC(=O)CN(C)C)cc34)cc2Cl)c1 as well.
Reply | rule not met

Ask | Next up: COC1=CC(=O)C(O)=C(CC2(C)C(C)CCC3(C)C2CCCC3(C)C)C1=O (configuration not stated)
Reply | rule not met

Ask | Input ON1CCc2c([nH]c3ccccc23)C1c1ccc(Cl)cc1 (configuration not stated)
Reply | rule met

Ask | Subsequent entry: c1ccc(C(NC2=NCCO2)C2CC2)cc1 (configuration not stated)
Reply | rule met

Ask | Can you check COC(=O)c1ccc(CCC2=CC(=O)C=CC2=O)cc1 next?
Reply | rule met

Ask | OC[C@H]1C[C@](O)(c2ccc(F)cc2)[C@@H](c2ccc(F)cc2)O1 , same question.
Reply | rule met

Ask | Also check Cc1nc2ccccc2n1Cc1nnc(-c2ccccc2)o1
Reply | rule met

Ask | Again, but for Cc1ccc(-c2nc([P+](c3ccccc3)(c3ccccc3)c3ccccc3)c(N3CCOCC3)o2)cc1
Reply | rule not met

Ask | Record: Oc1c(Br)cc(Cl)cc1C(c1cc(Cl)cc(Br)c1O)C(Cl)(Cl)Cl
Reply | rule not met

Ask | And what about the compound CCOC(=O)c1c(C)n(-c2ccc(C)cc2)c(=O)c2ccccc2c(=O)c2c(=O)ccc(=O)c1=2 ?
Reply | rule met

Ask | // query: C=CCN1C(=O)NC(=O)/C(=C/c2c3ccccc3cc3ccccc23)C1=O
Reply | rule met

Ask | Would you mind doing CN(C)c1ccc(/C=C2\CCc3ccccc3C2=O)cc1Br as well?
Reply | rule met

Ask | Entry COc1ccc(-c2c(Nc3ccccn3)nc3c(C4=CCCCC4)c(-c4ccccc4)[nH]n3c2=O)cc1 please
Reply | rule met
